Provide the reported pIC50 of each item.
target_or_system: Receptor-type tyrosine-protein kinase FLT3 (Homo sapiens, UniProt P36888, ITD)
method_summary: Inhibition of recombinant N-terminal GST/His6-tagged human FLT3 ITD mutant (571 to 993 residues) expressed in Sf9 insect cells incubated for 1 hr by LanthaScreen assay
Numbers only, as −log10 of the molar value.

Can you give me pIC50 for all of these, one by one?
1. COc1c(O)cc2oc(-c3ccc(O)cc3)cc(=O)c2c1O
2. COc1ccc(-c2cc(=O)c3c(O)c(OC)c(O)cc3o2)cc1
3. COc1ccc(-c2cc(=O)c3c(O)cc(O)cc3o2)cc1
4. COc1ccc(-c2cc(=O)c3c(O)c(OC)c(OC)cc3o2)cc1

Result:
6.41
6.06
6.68
6.24

---

target_or_system: Receptor-type tyrosine-protein kinase FLT3 (Homo sapiens, UniProt P36888, D835Y)
method_summary: Inhibition of recombinant His-tagged human FLT3 D835Y mutant (564 to 958 residues) expressed in baculovirus expression system using tyr 02 as substrate incubated for 1 hr by Z'-LYTE assay
I'd be grateful if you could share measured IC50 for these entries.
Numbers only, in nM.

| smi | IC50 / nM |
| --- | --- |
| COc1ccc(-c2cc(=O)c3c(O)c(OC)c(OC)cc3o2)cc1 | 290 |
| COc1ccc(-c2cc(=O)c3c(O)cc(O)cc3o2)cc1 | 1000 |
| COc1c(O)cc2oc(-c3ccc(O)cc3)cc(=O)c2c1O | 230 |

Query: # query: IC50 of entry COc1ccc(-c2cc(=O)c3c(O)c(OC)c(O)cc3o2)cc1
Result: 580

---

Record form. Attribute: pIC50. Fill in for each entry.
target_or_system: Receptor-type tyrosine-protein kinase FLT3 (Homo sapiens, UniProt P36888)
method_summary: Inhibition of recombinant His-tagged human FLT3 (564 to 958 residues) expressed in baculovirus expression system using tyr 02 as substrate incubated for 1 hr by Z'-LYTE assay
One number for each entry, as −log10 of the molar value.

Give me pIC50 for each of these molecules, listed below.
1. COc1cc(O)c2c(=O)cc(-c3ccc(O)cc3)oc2c1 [GENKWANIN]
2. COc1ccc(-c2cc(=O)c3c(O)c(OC)c(OC)cc3o2)cc1 [SALVIGENIN]

Result:
5.77
6.26

# batch: return pIC50 for each of the 4 molecules below
1. COc1ccc(-c2cc(=O)c3c(O)cc(O)cc3o2)cc1 [ACACETIN]
2. COc1c(O)cc2oc(-c3ccc(O)cc3)cc(=O)c2c1O [HISPIDULIN]
3. COc1ccc(-c2cc(=O)c3c(O)c(OC)c(OC)cc3o2)cc1O [EUPATORIN]
4. COc1ccc(-c2cc(=O)c3c(O)c(OC)c(O)cc3o2)cc1 [PECTOLINARIGENIN]

Result:
1: 6.06; 2: 6.36; 3: 5.96; 4: 6.19

---

Exercise: state measured IC50 for each of the compounds provided.
Tested on: MV4-11
method_summary: Cytotoxicity against human MV4-11 cells assessed as reduction in cell viability measured after 72 hrs by MTT assay
Format: functional, cell-based
setup_conditions: MV4-11, 72 h
Give bare numbers, in µM.

Look up IC50 for the entries below, preserving their order.
1. COc1ccc(-c2cc(=O)c3c(O)c(OC)c(OC)cc3o2)cc1
2. COc1ccc(-c2cc(=O)c3c(O)cc(O)cc3o2)cc1
3. COc1c(O)cc2oc(-c3ccc(O)cc3)cc(=O)c2c1O
4. COc1ccc(-c2cc(=O)c3c(O)c(OC)c(O)cc3o2)cc1

Result:
1. 2.6
2. 6.8
3. 6.8
4. 7.9
